Target: Nav 1.7 (Homo sapiens (Human), UniProt Q15858)
Sequence (Q15858 whole entry): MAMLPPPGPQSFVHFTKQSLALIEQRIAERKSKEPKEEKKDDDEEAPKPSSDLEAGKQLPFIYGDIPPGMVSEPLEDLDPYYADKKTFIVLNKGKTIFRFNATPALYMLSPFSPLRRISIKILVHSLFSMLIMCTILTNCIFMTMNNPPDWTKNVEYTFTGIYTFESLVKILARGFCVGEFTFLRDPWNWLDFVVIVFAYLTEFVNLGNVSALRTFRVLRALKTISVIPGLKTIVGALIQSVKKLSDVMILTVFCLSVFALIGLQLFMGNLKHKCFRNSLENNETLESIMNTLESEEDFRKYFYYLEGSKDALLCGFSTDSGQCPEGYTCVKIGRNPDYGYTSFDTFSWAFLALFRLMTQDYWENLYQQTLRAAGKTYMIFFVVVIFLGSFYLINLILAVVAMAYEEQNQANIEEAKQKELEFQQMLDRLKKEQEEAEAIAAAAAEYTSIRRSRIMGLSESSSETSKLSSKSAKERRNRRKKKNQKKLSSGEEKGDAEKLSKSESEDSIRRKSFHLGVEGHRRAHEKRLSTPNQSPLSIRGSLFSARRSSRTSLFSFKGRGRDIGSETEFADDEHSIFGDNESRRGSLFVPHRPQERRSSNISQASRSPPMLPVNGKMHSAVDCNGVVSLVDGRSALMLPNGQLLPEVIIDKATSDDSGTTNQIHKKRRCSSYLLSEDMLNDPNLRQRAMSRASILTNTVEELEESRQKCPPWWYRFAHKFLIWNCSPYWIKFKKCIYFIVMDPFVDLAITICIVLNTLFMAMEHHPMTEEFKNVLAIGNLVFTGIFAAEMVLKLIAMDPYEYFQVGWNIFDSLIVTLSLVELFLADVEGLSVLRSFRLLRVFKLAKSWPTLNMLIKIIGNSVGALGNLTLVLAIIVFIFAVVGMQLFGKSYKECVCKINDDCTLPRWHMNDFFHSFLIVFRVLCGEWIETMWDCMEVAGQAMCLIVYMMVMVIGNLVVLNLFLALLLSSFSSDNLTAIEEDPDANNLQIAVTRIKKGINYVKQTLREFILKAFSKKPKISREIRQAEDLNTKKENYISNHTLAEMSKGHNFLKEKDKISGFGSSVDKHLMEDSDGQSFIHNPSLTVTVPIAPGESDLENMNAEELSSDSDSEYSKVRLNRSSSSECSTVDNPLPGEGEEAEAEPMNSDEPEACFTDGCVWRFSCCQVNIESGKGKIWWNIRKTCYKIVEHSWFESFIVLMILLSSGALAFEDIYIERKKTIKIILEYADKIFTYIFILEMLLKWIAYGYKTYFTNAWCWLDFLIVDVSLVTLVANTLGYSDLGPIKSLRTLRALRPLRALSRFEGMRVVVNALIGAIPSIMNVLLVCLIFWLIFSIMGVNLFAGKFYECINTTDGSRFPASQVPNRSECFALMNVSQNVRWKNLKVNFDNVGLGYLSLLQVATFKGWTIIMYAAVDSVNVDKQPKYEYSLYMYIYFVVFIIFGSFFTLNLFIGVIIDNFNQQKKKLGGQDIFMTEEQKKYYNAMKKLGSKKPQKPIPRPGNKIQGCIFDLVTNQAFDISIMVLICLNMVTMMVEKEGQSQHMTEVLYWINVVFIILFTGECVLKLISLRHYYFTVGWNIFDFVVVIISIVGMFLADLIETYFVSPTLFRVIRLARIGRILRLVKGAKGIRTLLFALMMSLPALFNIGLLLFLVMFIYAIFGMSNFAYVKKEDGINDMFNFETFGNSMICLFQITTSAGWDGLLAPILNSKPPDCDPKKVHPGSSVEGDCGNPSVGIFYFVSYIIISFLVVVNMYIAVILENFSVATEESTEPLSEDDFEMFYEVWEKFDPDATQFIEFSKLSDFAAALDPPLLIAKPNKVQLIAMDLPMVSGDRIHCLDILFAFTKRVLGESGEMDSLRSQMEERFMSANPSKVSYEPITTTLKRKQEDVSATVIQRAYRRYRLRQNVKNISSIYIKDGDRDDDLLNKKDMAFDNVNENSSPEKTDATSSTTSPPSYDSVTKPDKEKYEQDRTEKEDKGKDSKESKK
Test: Nav 1.7 in vitro PX assay (PatchXpress whole cell voltage clamp);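 further: holding potential set for 20 to 50% inactivation, sodium current evoked by a 20 ms step to −10 mV, peak current inhibition read after compound exposure, 3–5 cells per concentration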
Assay type: cell-based
Details: in-vitro Nav 1.7 PX (PatchXpress)
Note: every record was labeled by where its IC50 sits among class 0 = under 60 nM, class 1 = from 60 nM up to 200 nM, class 2 = 200 nM and over

[
  {
    "compound": "COc1cc(-c2cc(F)cc(Cl)c2)c(C)cc1-c1nccc2cc(S(=O)(=O)Nc3ccon3)ccc12 [Example 285]",
    "category": "class 0"
  },
  {
    "compound": "COc1cc(-c2cccc(F)c2)c(Cl)cc1-c1ncnc2cc(S(=O)(=O)Nc3ncc(F)cn3)ccc12 [Example 289]",
    "category": "class 1"
  },
  {
    "compound": "COc1cc(-c2cccc(F)c2)c(Cl)cc1-c1nccc2cc(S(=O)(=O)Nc3ncc(F)cn3)ccc12 [Example 294]",
    "category": "class 2"
  },
  {
    "compound": "COc1cc(-c2cc(F)cc(Cl)c2)c(Cl)cc1-c1ncnc2cc(S(=O)(=O)Nc3ccon3)ccc12 [Example 310]",
    "category": "class 0"
  },
  {
    "compound": "CCOc1ccc(-c2cc(OC)c(-c3ncnc4cc(S(=O)(=O)Nc5ccon5)ccc34)cc2F)cc1C [Example 304]",
    "category": "class 2"
  },
  {
    "compound": "COc1nc(-c2cc(F)cc(F)c2)c(C#N)cc1-c1cccc2cc(S(=O)(=O)Nc3ccncn3)ccc12 [Example 64]",
    "category": "class 1"
  },
  {
    "compound": "COc1cc(-c2cc(Cl)cc(Cl)c2)c(F)cc1-c1ncnc2cc(S(=O)(=O)Nc3ccon3)ccc12 [Example 300]",
    "category": "class 0"
  },
  {
    "compound": "COc1cc(-c2cc(C)cc(Cl)c2)c(F)cc1-c1ncnc2cc(S(=O)(=O)Nc3ccon3)ccc12 [Example 297]",
    "category": "class 1"
  },
  {
    "compound": "COc1cc(-c2ccc(OCC(F)(F)F)nc2)ccc1-c1nccc2cc(S(=O)(=O)Nc3ccon3)ccc12 [Example 303]",
    "category": "class 2"
  },
  {
    "compound": "COc1cc(-c2cc(F)cnc2OC)c(C)cc1-c1nccc2cc(S(=O)(=O)Nc3ccon3)ccc12 [Example 279]",
    "category": "class 1"
  },
  {
    "compound": "COc1cc(-c2ccc(Cl)c(F)c2)c(C)cc1-c1nccc2cc(S(=O)(=O)Nc3ccon3)ccc12 [Example 286]",
    "category": "class 1"
  },
  {
    "compound": "COc1cc(-c2ccc(F)c(Cl)c2)c(C)cc1-c1nccc2cc(S(=O)(=O)Nc3ccon3)ccc12 [Example 284]",
    "category": "class 0"
  },
  {
    "compound": "COc1cc(-c2cc(F)cc(Cl)c2)c(F)cc1-c1ncnc2cc(S(=O)(=O)Nc3ccon3)ccc12 [Example 302]",
    "category": "class 0"
  },
  {
    "compound": "COc1cc(-c2cccc(F)c2)c(Cl)cc1-c1cccc2cc(S(=O)(=O)Nc3ccon3)ccc12 [Example 291]",
    "category": "class 2"
  }
]
